Target: Dopamine D4.4 (h) (Homo sapiens, UniProt P21917)
Construct: expressed in transfected cells; host or cells: CHO cells
Sequence (P21917 whole entry): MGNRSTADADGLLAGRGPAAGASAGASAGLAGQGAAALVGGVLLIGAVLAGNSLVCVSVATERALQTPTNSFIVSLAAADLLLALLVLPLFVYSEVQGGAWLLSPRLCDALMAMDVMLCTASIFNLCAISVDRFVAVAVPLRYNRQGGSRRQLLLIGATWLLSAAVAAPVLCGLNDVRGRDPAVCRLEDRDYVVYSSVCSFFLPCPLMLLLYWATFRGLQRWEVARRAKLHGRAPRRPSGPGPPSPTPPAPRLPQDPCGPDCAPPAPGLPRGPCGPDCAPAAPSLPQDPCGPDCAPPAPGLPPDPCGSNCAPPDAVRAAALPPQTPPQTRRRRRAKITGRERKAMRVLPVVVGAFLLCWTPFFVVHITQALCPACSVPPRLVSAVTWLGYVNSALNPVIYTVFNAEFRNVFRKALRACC
Assay: Binding D4.4 (h) (aa)
Conditions: read-out: % Inhibition of Control Specific Binding @ 10 μM
measurement-name: inhibition at 10 µM (%)
Numbers only here, please. The scale is %.

Lookup: Given CC1(C)C(=O)N(c2ccc(C#N)c(C(F)(F)F)c2)C(=S)N1c1ccc(C(N)=O)c(F)c1 , respond with its inhibition at 10 µM.
Found: 9

Lookup: Given CC1(C)C(=O)N(c2ccc(C#N)c(C(F)(F)F)c2)C(=O)N1c1ccc(C(N)=O)c(F)c1 , respond with its inhibition at 10 µM.
Found: 13

Lookup: Given CC1(C)C(=O)N(c2ccc(C#N)c(C(F)(F)F)c2)C(=S)N1c1ccc(C(=O)O)c(F)c1 , respond with its inhibition at 10 µM.
Found: 1

Lookup: Given CNC(=O)c1ccc(N2C(=O)N(c3ccc(C#N)c(C(F)(F)F)c3)C(=O)C2(C)C)cc1F , respond with its inhibition at 10 µM.
Found: -15

====

Biological target: acetylcholinesterase (h) (Homo sapiens, UniProt P22303)
Construct: host or cells: HEK-293 cells
Sequence (P22303 32-614): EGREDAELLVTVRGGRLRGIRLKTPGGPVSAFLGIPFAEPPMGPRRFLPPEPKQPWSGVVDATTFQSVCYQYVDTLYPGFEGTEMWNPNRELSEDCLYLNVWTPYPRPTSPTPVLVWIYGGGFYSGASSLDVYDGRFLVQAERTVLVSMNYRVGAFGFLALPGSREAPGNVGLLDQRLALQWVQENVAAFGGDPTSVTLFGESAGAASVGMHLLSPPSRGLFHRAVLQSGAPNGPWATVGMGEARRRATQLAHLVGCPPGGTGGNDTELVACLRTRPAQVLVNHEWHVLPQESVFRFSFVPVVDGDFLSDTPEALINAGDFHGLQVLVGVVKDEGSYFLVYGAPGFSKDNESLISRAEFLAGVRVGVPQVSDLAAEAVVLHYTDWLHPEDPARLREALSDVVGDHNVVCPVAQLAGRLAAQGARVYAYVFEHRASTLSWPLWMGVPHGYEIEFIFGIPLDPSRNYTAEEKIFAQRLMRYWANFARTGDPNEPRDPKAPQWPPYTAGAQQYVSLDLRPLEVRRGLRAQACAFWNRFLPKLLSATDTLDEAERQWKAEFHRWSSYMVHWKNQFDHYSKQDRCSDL
Assay: Enzyme assay acetylcholinesterase (h)
Format: biochemical
Conditions: read-out: % Inhibition of Control Values @ 10 μM
Hi there, I'd appreciate the recorded inhibition at 10 µM for every entry that follows.
// return the numeric value with its unit appended

Lookup: Given CC1(C)C(=O)N(c2ccc(C#N)c(C(F)(F)F)c2)C(=O)N1c1ccc(C(N)=O)c(F)c1 , respond with its inhibition at 10 µM.
Found: -1%

Lookup: Given CC1(C)C(=O)N(c2ccc(C#N)c(C(F)(F)F)c2)C(=S)N1c1ccc(C(N)=O)c(F)c1 , respond with its inhibition at 10 µM.
Found: 9%

Lookup: Given CC1(C)C(=O)N(c2ccc(C#N)c(C(F)(F)F)c2)C(=S)N1c1ccc(C(=O)O)c(F)c1 , respond with its inhibition at 10 µM.
Found: 51%

Lookup: Given CNC(=O)c1ccc(N2C(=O)N(c3ccc(C#N)c(C(F)(F)F)c3)C(=O)C2(C)C)cc1F , respond with its inhibition at 10 µM.
Found: 23%

====

Molecular target: MAO-B (h) (Homo sapiens, UniProt P27338)
Construct: human platelets; from tissue; host or cells: human platelets
Sequence (P27338 whole entry): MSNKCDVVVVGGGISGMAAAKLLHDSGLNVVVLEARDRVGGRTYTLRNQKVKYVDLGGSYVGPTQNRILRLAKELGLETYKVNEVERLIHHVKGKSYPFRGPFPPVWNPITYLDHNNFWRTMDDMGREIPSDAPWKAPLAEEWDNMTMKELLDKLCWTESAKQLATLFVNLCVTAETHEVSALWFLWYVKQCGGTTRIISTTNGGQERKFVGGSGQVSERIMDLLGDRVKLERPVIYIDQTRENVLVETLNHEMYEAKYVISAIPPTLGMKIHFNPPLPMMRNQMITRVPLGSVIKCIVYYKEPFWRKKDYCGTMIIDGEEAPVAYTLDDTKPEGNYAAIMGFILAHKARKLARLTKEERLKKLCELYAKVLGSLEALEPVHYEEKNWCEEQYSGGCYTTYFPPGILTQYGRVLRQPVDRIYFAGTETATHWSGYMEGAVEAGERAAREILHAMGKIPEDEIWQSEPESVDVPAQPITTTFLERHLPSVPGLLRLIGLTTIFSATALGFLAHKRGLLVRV
Assay: Enzyme assay MAO-B (h)
Format: biochemical
Conditions: read-out: % Inhibition of Control Values @ 10 μM
measurement-name: inhibition at 10 µM (%)
Numbers only here, please. The scale is %.

Lookup: Given CNC(=O)c1ccc(N2C(=O)N(c3ccc(C#N)c(C(F)(F)F)c3)C(=O)C2(C)C)cc1F , respond with its inhibition at 10 µM.
Found: 11

Lookup: Given CC1(C)C(=O)N(c2ccc(C#N)c(C(F)(F)F)c2)C(=O)N1c1ccc(C(N)=O)c(F)c1 , respond with its inhibition at 10 µM.
Found: -5

Lookup: Given CC1(C)C(=O)N(c2ccc(C#N)c(C(F)(F)F)c2)C(=S)N1c1ccc(C(N)=O)c(F)c1 , respond with its inhibition at 10 µM.
Found: -4

Lookup: Given CC1(C)C(=O)N(c2ccc(C#N)c(C(F)(F)F)c2)C(=S)N1c1ccc(C(=O)O)c(F)c1 , respond with its inhibition at 10 µM.
Found: 8

====

Hi there, I'd appreciate the recorded inhibition at 10 µM for every entry that follows.
Molecular target: Cannabinoid CB1 (h) (Homo sapiens)
Construct: expressed in transfected cells; host or cells: CHO cells
Sequence (P21554 whole entry): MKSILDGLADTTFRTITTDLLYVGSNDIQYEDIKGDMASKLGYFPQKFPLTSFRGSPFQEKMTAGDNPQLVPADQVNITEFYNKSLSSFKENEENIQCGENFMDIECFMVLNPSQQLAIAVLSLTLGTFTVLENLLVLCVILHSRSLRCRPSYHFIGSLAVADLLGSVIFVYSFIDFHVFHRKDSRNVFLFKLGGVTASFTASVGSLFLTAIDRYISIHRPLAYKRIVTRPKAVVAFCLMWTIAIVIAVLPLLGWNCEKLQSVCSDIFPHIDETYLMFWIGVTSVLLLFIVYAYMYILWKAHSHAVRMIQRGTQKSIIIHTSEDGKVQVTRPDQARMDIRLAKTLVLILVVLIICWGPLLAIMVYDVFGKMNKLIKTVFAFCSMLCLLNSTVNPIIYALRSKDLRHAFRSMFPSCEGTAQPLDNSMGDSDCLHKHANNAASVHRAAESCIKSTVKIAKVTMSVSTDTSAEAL
Experiment: Binding CB1 (h) (ag)
Conditions: read-out: % Inhibition of Control Specific Binding @ 10 μM
Numbers only here, please. The scale is %.

Lookup: Given CC1(C)C(=O)N(c2ccc(C#N)c(C(F)(F)F)c2)C(=S)N1c1ccc(C(N)=O)c(F)c1 , respond with its inhibition at 10 µM.
Found: 11

Lookup: Given CNC(=O)c1ccc(N2C(=O)N(c3ccc(C#N)c(C(F)(F)F)c3)C(=O)C2(C)C)cc1F , respond with its inhibition at 10 µM.
Found: 4

Lookup: Given CC1(C)C(=O)N(c2ccc(C#N)c(C(F)(F)F)c2)C(=S)N1c1ccc(C(=O)O)c(F)c1 , respond with its inhibition at 10 µM.
Found: -20

Lookup: Given CC1(C)C(=O)N(c2ccc(C#N)c(C(F)(F)F)c2)C(=O)N1c1ccc(C(N)=O)c(F)c1 , respond with its inhibition at 10 µM.
Found: 6
